Give IC50 for every item shown.
experimental system: Dihydrofolate reductase (Rattus norvegicus, UniProt Q920D2)
Sequence (Q920D2 whole entry): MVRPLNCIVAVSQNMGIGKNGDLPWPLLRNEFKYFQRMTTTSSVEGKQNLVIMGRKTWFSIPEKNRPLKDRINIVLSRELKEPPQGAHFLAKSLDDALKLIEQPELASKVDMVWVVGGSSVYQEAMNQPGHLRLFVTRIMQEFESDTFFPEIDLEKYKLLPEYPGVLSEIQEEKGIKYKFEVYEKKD
State just the number; it will be interpreted in nM.

Fill blank: measured IC50 of the molecule COc1cc(OC)cc(N(C)Cc2cnc3nc(N)nc(N)c3c2C)c1 is ____. 13

Try this molecule too: Nc1nc(N)c2nc(CSc3ccc(Cl)cc3)cnc2n1 14300

One more molecule: Nc1nc(N)c2cc(CNc3cccc4ccccc34)cnc2n1 230

Same again, this time with COc1ccc(OC)c(N(C)Cc2cnc3nc(N)nc(N)c3n2)c1 470

Subsequent entry: COc1cccc(SCc2cnc3nc(N)nc(N)c3c2C)c1 600

Same question, Cc1c(CSc2cccc3ccccc23)cnc2nc(N)nc(N)c12 this time 550

And the next one, COc1cc(NCc2cnc3nc(N)nc(N)c3c2C)cc(OC)c1 ? 31

What would you report for Cc1c(CCc2cccc3ccccc23)cnc2nc(N)nc(N)c12 ? 135

Lookup COc1cc(NCc2cnc3nc(N)nc(N)c3n2)cc(OC)c1OC 1900

Follow-up item: COc1ccc(OC)c(NCc2cnc3nc(N)nc(N)c3c2C)c1 10

Then Cc1c(CSc2ccccc2)cnc2nc(N)nc(N)c12 ? 430

Record: COc1ccc(N(C)Cc2cnc3nc(N)nc(N)c3c2C)cc1OC 5.2

Now consider COc1ccc(SCc2cnc3nc(N)nc(N)c3c2C)cc1OC and answer again. 180

Record: COc1ccc(N(C)Cc2cnc3nc(N)nc(N)c3c2C)c(OC)c1 230

Subsequent entry: Cc1cccc(SCc2cnc3nc(N)nc(N)c3c2C)c1 330

Let us now turn to COc1ccc(C(F)(F)F)cc1NCc1cnc2nc(N)nc(N)c2n1 21000

Now consider Nc1nc(N)c2cc(CNc3cccc4ccccc34)ccc2n1 . 55

Would you mind doing Cc1c(CN(C)c2cccc3c2CCCC3)cnc2nc(N)nc(N)c12 as well? 140

For COc1ccc(OC)c(CCc2cnc3nc(N)nc(N)c3c2C)c1 then? 770

What about COc1ccc(NCc2cnc3nc(N)nc(N)c3c2C)c(OC)c1 ? 61

Would you mind doing COc1ccc(OC)c(NCc2cnc3nc(N)nc(N)c3n2)c1 as well? 22900

Request: Cc1ccc(C)c(NCc2cnc3nc(N)nc(N)c3c2C)c1 120

Check COc1cc(NCc2cnc3nc(N)nc(N)c3n2)cc(OC)c1 too. 880

Then what about the molecule COc1cc(NCc2cnc3nc(N)nc(N)c3c2)cc(OC)c1OC ? 810

* * *

Sequence of the target: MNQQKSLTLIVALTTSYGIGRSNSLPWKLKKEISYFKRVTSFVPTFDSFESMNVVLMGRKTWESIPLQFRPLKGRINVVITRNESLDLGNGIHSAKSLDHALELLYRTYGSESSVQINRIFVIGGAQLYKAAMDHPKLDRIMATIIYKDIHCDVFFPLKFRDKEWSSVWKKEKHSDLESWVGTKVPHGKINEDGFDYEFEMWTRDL
pIC50: −log10 of the molar value.
# cutoff 6 applies to pIC50; >= gives Satisfied, < gives Not satisfied

Does pIC50 meet or surpass 6 for Nc1nc(N)c2cc(CNc3cccc4ccccc34)cnc2n1 ? Satisfied

Follow-up item: Cc1c(CN(C)c2cccc3c2CCCC3)cnc2nc(N)nc(N)c12 Satisfied

Request: Cc1ccc(SCc2cnc3nc(N)nc(N)c3c2C)cc1 Satisfied

Same read-out for Cc1cccc(SCc2cnc3nc(N)nc(N)c3n2)c1 ? Not satisfied

Now consider Cc1c(CNc2cccc3ccccc23)cnc2nc(N)nc(N)c12 and answer again. Satisfied

Now the same for COc1ccc(C)c(NCc2cnc3nc(N)nc(N)c3c2C)c1 Satisfied

Continue with Cc1cc(Cl)ccc1NCc1ccc2nc(N)nc(N)c2c1 Satisfied

Cool, now COc1ccc(OC)c(NCc2cnc3nc(N)nc(N)c3n2)c1 Not satisfied

Same for Nc1nc(N)c2nc(CSc3ccc(Cl)cc3)cnc2n1 Not satisfied

Now consider Cc1c(CSc2ccc(Cl)cc2)cnc2nc(N)nc(N)c12 . Satisfied

And what about the compound COc1ccc(N(C)Cc2cnc3nc(N)nc(N)c3c2C)c(OC)c1 ? Satisfied
